Data origin, for the record: patent US20240316022A1

# experimental_system: FGFR3 (Homo sapiens)
# Construct: made in house; host or cells: E. coli derived from BL21, infected with T7 phage
# Sequence (P22607 23-806): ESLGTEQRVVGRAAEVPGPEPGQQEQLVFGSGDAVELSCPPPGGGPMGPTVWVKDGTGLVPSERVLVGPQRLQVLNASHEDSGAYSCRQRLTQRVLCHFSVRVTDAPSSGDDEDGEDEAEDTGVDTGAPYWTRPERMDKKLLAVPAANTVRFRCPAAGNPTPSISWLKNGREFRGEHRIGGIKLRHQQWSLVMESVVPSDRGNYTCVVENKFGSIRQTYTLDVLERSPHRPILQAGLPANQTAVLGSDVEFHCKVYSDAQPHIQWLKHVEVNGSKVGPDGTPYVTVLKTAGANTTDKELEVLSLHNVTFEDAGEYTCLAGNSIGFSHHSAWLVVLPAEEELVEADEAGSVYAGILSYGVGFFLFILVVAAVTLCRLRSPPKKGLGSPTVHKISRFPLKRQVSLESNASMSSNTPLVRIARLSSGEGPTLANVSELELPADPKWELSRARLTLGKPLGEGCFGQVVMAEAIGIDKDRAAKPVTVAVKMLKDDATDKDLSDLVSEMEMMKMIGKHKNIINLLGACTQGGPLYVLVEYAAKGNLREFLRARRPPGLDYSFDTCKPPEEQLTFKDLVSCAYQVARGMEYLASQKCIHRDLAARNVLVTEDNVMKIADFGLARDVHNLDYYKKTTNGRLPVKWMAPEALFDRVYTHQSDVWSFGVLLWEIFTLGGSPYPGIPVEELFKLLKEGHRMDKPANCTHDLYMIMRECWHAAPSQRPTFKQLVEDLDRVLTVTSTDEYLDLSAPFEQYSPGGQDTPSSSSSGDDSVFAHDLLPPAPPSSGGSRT
# experimental_protocol: Kinase binding assay (kinase-tagged T7 phage, qPCR), Kd
# assay_context: read-out: FGFR3 (Kd nM)
For each entry below, report its Kd value.

Exercise: Kd lookup needed for COc1cc2[nH]nc(-c3cnc4c(c3)N(S(C)(=O)=O)CCO4)c2cc1O[C@H](C)c1c(Cl)cncc1Cl [Example 140] , thanks.
Key: 100 to 250 nM

Exercise: Please give the result for Cc1ncc(Cl)c([C@@H](C)Oc2ccc3[nH]nc(-c4ccc5c(c4)COC4(CCN(S(C)(=O)=O)CC4)O5)c3c2)c1Cl [Example 163] too.
Key: 0.1 to 100 nM

Exercise: Please give the result for C[C@@H](Oc1ccc2[nH]nc(-c3cnc(NC4CCOCC4)c(C#N)c3)c2c1)c1c(Cl)cncc1Cl [Example 132] too.
Key: 0.1 to 100 nM

Exercise: Please give the result for COc1cc(C#N)cc(-c2n[nH]c3cc(OC)c(O[C@H](C)c4c(C)cnnc4C)cc23)c1 [Example 101] too.
Key: 0.1 to 100 nM

Exercise: Please give the result for C[C@@H](Oc1ccc2[nH]nc(-c3cnc4c(c3)N(CC(F)(F)F)CCO4)c2c1)c1c(Cl)cncc1Cl [Example 139, 2,2,2-trifluoroacetate] too.
Key: > 1000 nM

Exercise: Please give the result for C[C@@H](Oc1cc2c(-c3cnc(O[C@@H]4CCOC4)c(C#N)c3)n[nH]c2cc1F)c1c(Cl)cncc1Cl [Example 138] too.
Key: 0.1 to 100 nM

Exercise: Please give the result for COc1ncc(-c2n[nH]c3ccc(O[C@H](C)c4c(Cl)cncc4Cl)cc23)cc1NC(=O)N1CCOCC1 [Example 5] too.
Key: 250 to 1000 nM

----------
# experimental_system: FGFR1 (Homo sapiens)
# Construct: made in house; host or cells: E. coli derived from BL21, infected with T7 phage
# Sequence (P11362 22-822): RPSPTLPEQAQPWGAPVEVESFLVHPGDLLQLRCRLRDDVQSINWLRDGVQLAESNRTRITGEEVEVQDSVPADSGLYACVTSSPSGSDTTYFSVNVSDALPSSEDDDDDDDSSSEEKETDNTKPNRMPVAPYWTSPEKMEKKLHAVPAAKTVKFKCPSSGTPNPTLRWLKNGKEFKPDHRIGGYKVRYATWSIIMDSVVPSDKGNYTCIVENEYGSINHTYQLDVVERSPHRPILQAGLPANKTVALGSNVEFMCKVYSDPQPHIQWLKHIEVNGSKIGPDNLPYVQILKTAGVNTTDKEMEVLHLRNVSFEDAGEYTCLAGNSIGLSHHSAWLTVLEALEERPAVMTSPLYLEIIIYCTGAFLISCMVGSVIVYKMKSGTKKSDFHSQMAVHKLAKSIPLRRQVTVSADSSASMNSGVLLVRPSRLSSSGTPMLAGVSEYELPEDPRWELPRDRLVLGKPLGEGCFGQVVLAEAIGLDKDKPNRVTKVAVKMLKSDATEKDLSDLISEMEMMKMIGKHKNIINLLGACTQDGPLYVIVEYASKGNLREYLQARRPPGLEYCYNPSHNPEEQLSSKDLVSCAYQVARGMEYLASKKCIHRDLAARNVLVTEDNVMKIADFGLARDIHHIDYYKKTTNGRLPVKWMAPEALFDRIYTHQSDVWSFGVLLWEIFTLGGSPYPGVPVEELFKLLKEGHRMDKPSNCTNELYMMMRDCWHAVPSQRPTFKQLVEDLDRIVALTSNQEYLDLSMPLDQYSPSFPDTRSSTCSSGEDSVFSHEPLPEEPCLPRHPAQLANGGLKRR
# experimental_protocol: Kinase binding assay (kinase-tagged T7 phage, qPCR), Kd
# assay_context: read-out: FGFR1 (Kd nM)
reported_endpoint: Kd

Exercise: Kd lookup needed for CCN1CCC2(CC1)CC(=O)c1cc(-c3n[nH]c4ccc(O[C@H](C)c5c(C)cnnc5C)cc34)ccc1O2 , thanks.
Key: 0.1 to 100 nM

Exercise: Please give the result for COc1ncc(-c2n[nH]c3ccc(O[C@H](C)c4c(Cl)cncc4Cl)cc23)cc1N too.
Key: 100 to 250 nM

Exercise: Please give the result for C[C@@H](Oc1ccc2[nH]nc(-c3cnc4c(c3)N(CC(F)(F)F)CCO4)c2c1)c1c(Cl)cncc1Cl [Example 139, 2,2,2-trifluoroacetate] too.
Key: > 1000 nM

Exercise: Please give the result for COc1ncc(-c2n[nH]c3ccc(O[C@H](C)c4c(Cl)cncc4Cl)cc23)cc1NC(=O)CCN(C)C too.
Key: 250 to 1000 nM

Exercise: Please give the result for Cc1cc(-c2n[nH]c3ccc(O[C@H](C)c4c(Cl)cncc4Cl)cc23)cnc1N[C@H]1CCOC1 too.
Key: 0.1 to 100 nM

Exercise: Please give the result for Cc1cc(-c2n[nH]c3ccc(O[C@H](C)c4c(C)cnnc4C)cc23)cc(C#N)c1OC1CCN(C(C)C)CC1 too.
Key: 0.1 to 100 nM

Exercise: Please give the result for Cc1ncc(Cl)c([C@@H](C)Oc2ccc3[nH]nc(-c4ccc(O[C@H]5CCOC5)nc4)c3c2)c1Cl too.
Key: 0.1 to 100 nM

Exercise: Please give the result for Cc1cnnc(C)c1[C@@H](C)Oc1ccc2[nH]nc(-c3cnc(N(C)C)c(C#N)c3)c2c1 too.
Key: 100 to 250 nM

Exercise: Please give the result for CNC(=O)c1ccc(-c2n[nH]c3ccc(O[C@H](C)c4c(Cl)cncc4Cl)cc23)cn1 too.
Key: 0.1 to 100 nM

Exercise: Please give the result for CC(C)OC(=O)Nc1ccc(-c2n[nH]c3ccc(O[C@H](C)c4c(Cl)cncc4Cl)cc23)cn1 too.
Key: 100 to 250 nM

Exercise: Please give the result for C[C@@H](Oc1ccc2[nH]nc(-c3cnc4c(c3)N(C(=O)N3CCOCC3)CCO4)c2c1)c1c(Cl)cncc1Cl too.
Key: 250 to 1000 nM

Exercise: Please give the result for CCOCCOc1cc(C#N)cc(-c2n[nH]c3ccc(O[C@H](C)c4c(C)cnnc4C)cc23)c1 too.
Key: > 1000 nM

Exercise: Please give the result for Cc1cc(-c2n[nH]c3ccc(O[C@H](C)c4c(Cl)cncc4Cl)cc23)cnc1NC1CCOCC1 too.
Key: 100 to 250 nM

Exercise: Please give the result for Cc1cc(-c2n[nH]c3ccc(O[C@H](C)c4c(C)cnnc4C)cc23)cc(C#N)c1F too.
Key: 250 to 1000 nM

Exercise: Please give the result for COc1cc(-c2n[nH]c3ccc(O[C@H](C)c4c(C)cnnc4C)cc23)cc(C#N)c1OC too.
Key: 250 to 1000 nM

Exercise: Please give the result for COc1cc2[nH]nc(-c3cc(C)c(OC)c(C#N)c3)c2cc1O[C@H](C)c1c(C)cnnc1C too.
Key: 0.1 to 100 nM

Exercise: Please give the result for C[C@@H](Oc1cc2c(-c3cnc4c(c3)N(S(C)(=O)=O)CCO4)n[nH]c2cc1Cl)c1c(Cl)cncc1Cl too.
Key: > 1000 nM

Exercise: Please give the result for Cc1cnnc(C)c1[C@@H](C)Oc1ccc2[nH]nc(-c3cc(C#N)cc(OCCO)c3)c2c1 too.
Key: 0.1 to 100 nM

Exercise: Please give the result for C[C@@H](Oc1ccc2[nH]nc(-c3cnc4c(c3)N(C(=O)CCN(C)C)CCO4)c2c1)c1c(Cl)cncc1Cl too.
Key: > 1000 nM

Exercise: Please give the result for C[C@@H](Oc1ccc2[nH]nc(-c3cnc(O[C@H]4CCOC4)c(C#N)c3)c2c1)c1c(Cl)cncc1Cl too.
Key: 100 to 250 nM

Exercise: Please give the result for CCN1CCC(Oc2c(C)cc(-c3n[nH]c4ccc(O[C@H](C)c5c(C)cnnc5C)cc34)cc2C#N)CC1 too.
Key: 0.1 to 100 nM

Exercise: Please give the result for CCN1CCC2(CCc3cc(-c4n[nH]c5ccc(O[C@H](C)c6c(C)cnnc6C)cc45)ccc3O2)CC1 too.
Key: 0.1 to 100 nM

Exercise: Please give the result for COc1cc(C#N)cc(-c2n[nH]c3cc(OC)c(O[C@H](C)c4c(C)cnnc4C)cc23)c1 too.
Key: 0.1 to 100 nM

Exercise: Please give the result for COc1cc(-c2n[nH]c3ccc(O[C@H](C)c4c(Cl)cncc4Cl)cc23)cc(C#N)c1OC1CCNCC1 too.
Key: > 1000 nM

Exercise: Please give the result for C[C@@H](Oc1ccc2[nH]nc(-c3cnc4c(c3)N(Cc3ccccn3)CCO4)c2c1)c1c(Cl)cncc1Cl too.
Key: > 1000 nM

Exercise: Please give the result for C[C@@H](Oc1ccc2[nH]nc(-c3cnc(N)c(OCC(F)(F)F)c3)c2c1)c1c(Cl)cncc1Cl too.
Key: > 1000 nM

Exercise: Please give the result for Cc1ncc(Cl)c([C@@H](C)Oc2ccc3[nH]nc(-c4ccc(NC5CCOCC5)nc4)c3c2)c1Cl too.
Key: 0.1 to 100 nM

Exercise: Please give the result for C[C@@H](Oc1ccc2[nH]nc(-c3cnc(N)c(C#N)c3)c2c1)c1c(Cl)cncc1Cl too.
Key: 0.1 to 100 nM

Exercise: Please give the result for C[C@@H](Oc1ccc2[nH]nc(-c3ccc4c(c3)COC3(CCN(CC(F)(F)F)CC3)O4)c2c1)c1c(Cl)cncc1Cl too.
Key: 100 to 250 nM

----------
# experimental_system: FGFR3 (Homo sapiens)
# Construct: made in house; host or cells: E. coli derived from BL21, infected with T7 phage
# experimental_protocol: Kinase binding assay (kinase-tagged T7 phage, qPCR), Kd
# assay_context: read-out: FGFR3 (Kd nM)
# Experimental: Kinase-tagged T7 phage strains were prepared in an E. coli host derived from the BL21 strain. E. coli were grown to log-phase and infected with T7 phage and incubated with shaking at 32° C. until lysis. The lysates were centrifuged and filtered to remove cell debris. […] Test compounds were prepared as 111X stocks in 100% DMSO. Kds were determined using an 11-point 3-fold compound dilution series with three DMSO control points. […] The kinase concentration in the eluates was measured by qPCR. […]
reported_endpoint: Kd

Exercise: Kd lookup needed for Cc1cnnc(C)c1[C@H](C)Oc1ccc2[nH]nc(-c3cc(C#N)cc(N4CCOCC4)c3)c2c1 , thanks.
Key: > 1000 nM

Exercise: Please give the result for CCOc1cc(OC)cc(-c2n[nH]c3ccc(O[C@@H](C)c4c(C)cnnc4C)cc23)c1 too.
Key: > 1000 nM

Exercise: Please give the result for Cc1ncc(Cl)c([C@@H](C)Oc2ccc3[nH]nc(-c4ccc(N[C@@H]5CCOC5)nc4)c3c2)c1Cl too.
Key: 0.1 to 100 nM

Exercise: Please give the result for Cc1nccc(C(=O)N2CCOc3ncc(-c4n[nH]c5ccc(O[C@H](C)c6c(Cl)cncc6Cl)cc45)cc32)n1 too.
Key: 0.1 to 100 nM

Exercise: Please give the result for Cc1ncc(Cl)c([C@@H](C)Oc2ccc3[nH]nc(-c4ccc(NC5CCOCC5)nc4)c3c2)c1Cl too.
Key: 0.1 to 100 nM

Exercise: Please give the result for Cc1cnnc(C)c1[C@@H](C)Oc1ccc2[nH]nc(-c3cc(C#N)cc(OC4CCOC4)c3)c2c1 (some centres unmarked) too.
Key: 100 to 250 nM

Exercise: Please give the result for C[C@@H](Oc1ccc2[nH]nc(-c3cnc4c(c3)N(CC(F)F)CCO4)c2c1)c1c(Cl)cncc1Cl too.
Key: > 1000 nM

Exercise: Please give the result for C[C@@H](Oc1ccc2[nH]nc(-c3cnc(O[C@@H]4CCOC4)c(C#N)c3)c2c1)c1c(Cl)cncc1Cl too.
Key: 0.1 to 100 nM

Exercise: Please give the result for C[C@@H](Oc1ccc2[nH]nc(-c3ccc(NC(=O)N4CCOCC4)nc3)c2c1)c1c(Cl)cncc1Cl too.
Key: 0.1 to 100 nM

Exercise: Please give the result for CCOCCOc1cc(C#N)cc(-c2n[nH]c3ccc(O[C@H](C)c4c(C)cnnc4C)cc23)c1 too.
Key: 100 to 250 nM

Exercise: Please give the result for C[C@@H](Oc1ccc2[nH]nc(-c3cnc4c(c3)N(CCN3CCOCC3)CCO4)c2c1)c1c(Cl)cncc1Cl too.
Key: > 1000 nM

Exercise: Please give the result for Cc1ncc(Cl)c([C@@H](C)Oc2ccc3[nH]nc(-c4ccc(O[C@@H]5CCOC5)nc4)c3c2)c1Cl too.
Key: 0.1 to 100 nM

Exercise: Please give the result for Cc1ccc(C(=O)N2CCOc3ncc(-c4n[nH]c5ccc(O[C@H](C)c6c(Cl)cncc6Cl)cc45)cc32)cn1 too.
Key: 0.1 to 100 nM

Exercise: Please give the result for COc1cc2[nH]nc(-c3cnc(O[C@@H]4CCOC4)c(C#N)c3)c2cc1O[C@H](C)c1c(Cl)cncc1Cl too.
Key: 0.1 to 100 nM

Exercise: Please give the result for CCS(=O)(=O)N1CCOc2ncc(-c3n[nH]c4ccc(O[C@H](C)c5c(Cl)cncc5Cl)cc34)cc21 too.
Key: > 1000 nM

Exercise: Please give the result for COc1c(C)cc(-c2n[nH]c3ccc(O[C@H](C)c4c(Cl)cncc4Cl)cc23)cc1C#N too.
Key: 0.1 to 100 nM

Exercise: Please give the result for CCN1CCC2(CC1)CC(O)c1cc(-c3n[nH]c4ccc(O[C@H](C)c5c(C)cnnc5C)cc34)ccc1O2 (some centres unmarked) too.
Key: 0.1 to 100 nM

Exercise: Please give the result for COc1cc(-c2n[nH]c3ccc(O[C@H](C)c4c(C)cnnc4C)cc23)cc(C#N)n1 too.
Key: 100 to 250 nM

Exercise: Please give the result for C[C@@H](Oc1ccc2[nH]nc(-c3ccc4c(c3)C(=O)CC3(CCNCC3)O4)c2c1)c1c(Cl)cncc1Cl too.
Key: 0.1 to 100 nM

Exercise: Please give the result for C=CC(=O)N1CCOc2ncc(-c3n[nH]c4ccc(O[C@H](C)c5c(Cl)cncc5Cl)cc34)cc21 too.
Key: > 1000 nM

Exercise: Please give the result for C[C@@H](Oc1ccc2[nH]nc(-c3cnc4c(c3)N(Cc3ccccn3)CCO4)c2c1)c1c(Cl)cncc1Cl too.
Key: 0.1 to 100 nM

Exercise: Please give the result for C[C@@H](Oc1ccc2[nH]nc(-c3cnc(N)c(OC(F)(F)F)c3)c2c1)c1c(Cl)cncc1Cl too.
Key: > 1000 nM

Exercise: Please give the result for C[C@@H](Oc1ccc2[nH]nc(-c3cnc(OCC(C)(C)O)c(C#N)c3)c2c1)c1c(Cl)cncc1Cl too.
Key: 0.1 to 100 nM

Exercise: Please give the result for C[C@@H](Oc1ccc2[nH]nc(-c3cnc4c(c3)OCC(=O)N4)c2c1)c1c(Cl)cncc1Cl too.
Key: 0.1 to 100 nM

Exercise: Please give the result for Cc1cnnc(C)c1[C@@H](C)Oc1ccc2[nH]nc(-c3ccc4c(c3)COC3(CCN(C(C)C)CC3)O4)c2c1 too.
Key: 0.1 to 100 nM

Exercise: Please give the result for COc1ncc(-c2n[nH]c3ccc(O[C@H](C)c4c(Cl)cncc4Cl)cc23)cc1NC(=O)CCN(C)C too.
Key: 100 to 250 nM

Exercise: Please give the result for Cc1cc(-c2n[nH]c3ccc(O[C@H](C)c4c(Cl)cnc(C)c4Cl)cc23)cnc1O[C@@H]1CCOC1 too.
Key: 0.1 to 100 nM

Exercise: Please give the result for CCOc1cc(-c2n[nH]c3ccc(O[C@H](C)c4c(Cl)cncc4Cl)cc23)cnc1N too.
Key: 250 to 1000 nM

Exercise: Please give the result for COc1cc(OC(F)(F)F)cc(-c2n[nH]c3ccc(O[C@H](C)c4c(C)cnnc4C)cc23)c1 too.
Key: 250 to 1000 nM
